tested on: Trichophyton benhamiae; experiment: In vitro antifungal activity against Trichophyton mentagrophytes CM84; format: functional, Arthroderma benhamiae
Listed below: MFC values for each entry.
Express it in µg/mL; write the number only.

| Compound | Result Type | Unit Abbrev | Test Value |
| --- | --- | --- | --- |
| Clc1ccc(C(Cn2ccnc2)O/N=C/c2ccc(OCCN3CCOCC3)cc2)c(Cl)c1 (stereo unspecified) | MFC | µg/mL | 8 |
| C/C(=N\OC(Cn1ccnc1)c1ccc(F)cc1F)c1cc(F)ccc1F (stereo unspecified) | MFC | µg/mL | 2 |
| Clc1ccc(CO/N=C(\Cn2ccnc2)c2ccc(Cl)cc2Cl)c(Cl)c1 [OXICONAZOLE] | MFC | µg/mL | 4 |

Next:
Recorded MFC for C/C(=N\OC(Cn1ccnc1)c1ccc(Cl)cc1Cl)c1ccc(Cl)cc1Cl (stereo unspecified) , please?
8

* * *

tested on: Trichophyton benhamiae; assay: In vitro antifungal activity against Trichophyton mentagrophytes CM84; format: functional, Arthroderma benhamiae
Result Type: MFC

Here is how some molecules turned out for MFC.
| Molecule | MFC |
| --- | --- |
| C/C(=N\OC(Cn1ccnc1)c1ccc(Cl)cc1Cl)c1ccc(OCCN2CCOCC2)cc1 (stereo not given) | 8 µg/mL |
| OC(Cn1cncn1)(Cn1cncn1)c1ccc(F)cc1F | > 128 µg/mL |
| C/C(=N\OC(Cn1ccnc1)c1ccc(F)cc1F)c1ccc(F)cc1F (stereo not given) | 4 µg/mL |
| C/C(=N\OC(Cn1ccnc1)c1ccc(F)cc1F)c1c(F)cccc1F (stereo not given) | 2 µg/mL |

Next:
Recorded MFC for C/C(=N\OC(Cn1ccnc1)c1ccc(F)cc1F)c1ccc(OCCN2CCOCC2)cc1 (stereo not given) with Trichophyton benhamiae, please?
4 µg/mL

* * *

Listed below: MFC values for each entry.
system: Aspergillus fumigatus; test: In vitro antifungal activity against Aspergillus fumigatus 48238E; format: functional
Express it in µg/mL; write the number only.

Here is how some compounds turned out for MFC.
| Compound | Result Type | Unit Abbrev | Test Value |
| --- | --- | --- | --- |
| C/C(=N\OC(Cn1ccnc1)c1ccc(F)cc1F)c1ccc(F)cc1F (stereo not drawn) | MFC | µg/mL | 16 |
| C/C(=N\OC(Cn1ccnc1)c1ccc(F)cc1F)c1ccc(OCCN2CCOCC2)cc1 (stereo not drawn) | MFC | µg/mL | 16 |
| Fc1ccc(C(Cn2ccnc2)O/N=C/c2ccc(OCCN3CCOCC3)cc2)c(F)c1 (stereo not drawn) | MFC | µg/mL | 64 |
| C/C(=N\OC(Cn1ccnc1)c1ccc(Cl)cc1Cl)c1ccc(Cl)cc1Cl (stereo not drawn) | MFC | µg/mL | 8 |
| Clc1ccc(C(Cn2ccnc2)O/N=C/c2ccc(OCCN3CCOCC3)cc2)c(Cl)c1 (stereo not drawn) | MFC | µg/mL | 2 |

Recorded MFC for Clc1ccc(CO/N=C(\Cn2ccnc2)c2ccc(Cl)cc2Cl)c(Cl)c1 with Aspergillus fumigatus, please?
2

* * *

system: Candida parapsilosis; experiment: In vitro antifungal activity against Candida parapsilosis 2372E; assay type: functional; conditions: Lodderomyces parapsilosis
Result Type: MFC

| Compound | Tgt | MFC |
| --- | --- | --- |
| C/C(=N\OC(Cn1ccnc1)c1ccc(F)cc1F)c1c(F)cccc1F (centres undefined) | Candida parapsilosis | 16 µg/mL |
| C/C(=N\OC(Cn1ccnc1)c1ccc(F)cc1F)c1ccc(F)cc1F (centres undefined) | Candida parapsilosis | 32 µg/mL |
| Fc1ccc(/C(Cn2ccnc2)=N/OC(Cn2ccnc2)c2ccc(F)cc2F)c(F)c1 (centres undefined) | Candida parapsilosis | 128 µg/mL |
| Fc1ccc(C(Cn2ccnc2)O/N=C/c2ccc(OCCN3CCOCC3)cc2)c(F)c1 (centres undefined) | Candida parapsilosis | 4 µg/mL |

Recorded MFC for Clc1ccc(CO/N=C(\Cn2ccnc2)c2ccc(Cl)cc2Cl)c(Cl)c1 with Candida parapsilosis, please?
4 µg/mL

Item: Clc1ccc(C(Cn2ccnc2)O/N=C/c2ccc(OCCN3CCOCC3)cc2)c(Cl)c1 (centres undefined)
16 µg/mL

Item: OC(Cn1cncn1)(Cn1cncn1)c1ccc(F)cc1F
> 128 µg/mL

Item: C/C(=N\OC(Cn1ccnc1)c1ccc(Cl)cc1Cl)c1ccc(OCCN2CCOCC2)cc1 (centres undefined)
8 µg/mL

Item: C/C(=N\OC(Cn1ccnc1)c1ccc(F)cc1F)c1cc(F)ccc1F (centres undefined)
64 µg/mL
